TEST TARGET: Platelet-derived growth factor receptor (Homo sapiens, UniProt P09619+P16234)
TEST NAME: Inhibition of human PDGF receptor phosphorylation; 0.3-0.5
Format: protein-complex assay
READOUT: IC50 (nM)
Write it as a number; the unit nM goes unstated.

Problem: Param item = `COc1cc2cc(CCC3CCCCC3)cnc2cc1OC` ; retrieve measured IC50.
Solution: 500

----------
TEST TARGET: Platelet-derived growth factor receptor (Homo sapiens, UniProt P09619+P16234)
TEST NAME: Inhibition of human PDGF receptor phosphorylation; 0.1-0.4
Format: protein-complex assay
READOUT: pIC50
Keep it numeric: pIC50 is minus log10 of the concentration in mol/L.

Problem: Please tell me: pIC50 of `COc1ccc(-c2cnc3cc(OC)c(OC)cc3c2)cc1C` , system Platelet-derived growth factor receptor (Homo sapiens, UniProt P09619+P16234)?
Solution: 6.40

----------
TEST TARGET: Platelet-derived growth factor receptor (Homo sapiens, UniProt P09619+P16234)
TEST NAME: Inhibition of human PDGF receptor phosphorylation; 0.04-0.08
Type: protein-complex assay
READOUT: IC50 (nM)
Write it as a number; the unit nM goes unstated.

Problem: Please tell me: IC50 of `COc1cc2cc(-c3cccs3)cnc2cc1OC` , system Platelet-derived growth factor receptor (Homo sapiens, UniProt P09619+P16234)?
Solution: 80
